Tested on: Echinochloa crus-galli
Experiment: Herbicidal activity against barnyard grass (Echinochloa crusgalli L. Beauv.) as the dose required for 50% control
Type: functional
measurementName: -Log ED50 (M acre-1)
Answers are plain numbers, in M acre-1.

INSERT INTO measurements (compound, result) VALUES
  ('O=S(=O)(Cc1c(Cl)cccc1Cl)c1cccc[n+]1[O-]', 0.96),
  ('CC(c1ccc(Cl)cc1)S(=O)(=O)c1cccc[n+]1[O-] (stereo unspecified)', 0.9),
  ('CC(c1cccc(C(F)(F)F)c1)S(=O)(=O)c1cccc[n+]1[O-] (stereo unspecified)', 0.46),
  ('Cc1cc(Cl)ccc1C(C)S(=O)(=O)c1cccc[n+]1[O-] (stereo unspecified)', 0.84),
  ('O=S(=O)(Cc1cccc(Br)c1)c1cccc[n+]1[O-]', 0.16),
  ('Cc1ccc(C(F)(F)F)cc1C(C)S(=O)(=O)c1cccc[n+]1[O-] (stereo unspecified)', 0.79);

// input: 5 compounds below; output: -Log ED50 for each
1. CC(c1cc(C(F)(F)F)ccc1Cl)S(=O)(=O)c1cccc[n+]1[O-] (stereo unspecified)
2. CC(c1c(F)cccc1Cl)S(=O)(=O)c1cccc[n+]1[O-] (stereo unspecified)
3. CC(C)c1ccc(C(C)C)c(CS(=O)(=O)c2cccc[n+]2[O-])c1
4. CCc1ccc(CC)c(C(C)S(=O)(=O)c2cccc[n+]2[O-])c1 (stereo unspecified)
5. Cc1ccccc1C(C)S(=O)(=O)c1cccc[n+]1[O-] (stereo unspecified)

1: 0.91; 2: 1.35; 3: -0.02; 4: 1.15; 5: 1.58

Source listed as ChEMBL document CHEMBL1122355.
